- assayed system: human glucagon receptor (human, UniProt P47871 26-477)
- assay name: cell-based or functional assay
assay readout: cAMP EC50 (nM)
Express your answer in nM, writing the number without its unit.

Worked set:
input: # get_value(readout='cAMP EC50', item= IP200 (Fc fusion) YSQGTFTSDYSKILEEEAVRLFIEWLVKGPAAAGGSGSTASSGSGSATGGGGAATHTCPPCPAPEF )
output: 0.11

input: # get_value(readout='cAMP EC50', item= IP286 (Fc fusion) YSEGTFTSDYSKLLEEEAVRLFIEWLVKGPGGGGGGGGGGGGGGGGGGGGGGGGGGGATHTCPPC )
output: 920

input: # get_value(readout='cAMP EC50', item= IP147 (Fc fusion) YSEGTFTSDYSKLLEEEAVRLFIEWLVKGPAPPGGSGSTASSGSGSATGGGGAATHTCPPCPAPEF )
output: 130

***
input: # get_value(readout='cAMP EC50', item= IP297 (Fc fusion) YSEGTFTSDYSKLLEEEAVRLFIEWLLAGGGGGGGGGGGGGGGGGGGGGGGGGACPPC )
output: 31
